# Test system: human mammary adenocarcinoma cells (MCF-7)
# EXPERIMENTAL_PROTOCOL: Cytotoxicity of elution fractions from DC Bead microspheres on MCF-7 cells (ATPLite)
# Assay type: cell-based
# SETUP_CONDITIONS: MCF7, 72 h, fraction eluted at 72 h, MCF-7, 72 h treatment
EXPERIMENTAL_ENDPOINT: pIC50
Answers are plain numbers, as −log10 of the molar value.

So for COc1cccc2c1C(=O)c1c(O)c3c(c(O)c1C2=O)C[C@@](O)(C(=O)CO)C[C@@H]3O[C@H]1C[C@H](N)[C@H](O)[C@H](C)O1 [Doxorubicin, reference compound] , the logged pIC50 turned out to be 6.85

====

# Test system: human mammary adenocarcinoma cells (MCF-7)
# EXPERIMENTAL_PROTOCOL: Cytotoxicity of elution fractions from DC Bead microspheres on MCF-7 cells (ATPLite)
# Assay type: cell-based
# SETUP_CONDITIONS: MCF7, fraction eluted at 24 h, MCF-7, 72 h treatment
EXPERIMENTAL_ENDPOINT: IC50 (nM)
Answers are plain numbers, in nM.

So for COc1cccc2c1C(=O)c1c(O)c3c(c(O)c1C2=O)C[C@@](O)(C(=O)CO)C[C@@H]3O[C@H]1C[C@H](N)[C@H](O)[C@H](C)O1 [Doxorubicin, reference compound] , the logged IC50 turned out to be 250
